System: SW-620 colon
Assay: NCI-60 one-dose screen, 48 h (100 = growth as untreated, 0 = no growth, -100 = all killed)
Details: 10 µM unless noted
This is part of a sample that, as a whole, favours compounds with a hit. Of some 83,000 tested, about 20% had one in any assay.
Threshold-based label: growth under 20% gives TRUE, growth not under 20% gives FALSE.

Past entries and their recorded results:
1. O=C(Nc1ccccc1-c1nc2ccccc2c(=O)[nH]1)c1cc2ccccc2[nH]1
FALSE
2. CCN(CC)CCN1C(=O)c2c(c(C)c3c(oc4cc(O)ccc43)c2C)C1=O
TRUE
3. Cc1c(O)cc(-c2cnc(N/N=C\c3ccc(Cl)cc3)s2)c(O)c1C
FALSE
4. S=C(Cc1ccc2c(c1)CCCC2)N1CCOCC1
FALSE
5. CC1=C([Se]CC(OC(=O)CC[Se]c2ccccc2)C(=O)NCCCCCC(=O)OCc2ccccc2)C(=O)c2ccccc2C1=O (centres undefined)
FALSE

Find out if reported growth for "N=C1C(c2nc(-c3ccc(Br)cc3)cs2)=C(O)CN1Cc1cccnc1" is less than 20% FALSE

Lookup "COc1ccc2nc(NNC(=O)c3cnccn3)c3cccn3c2c1" TRUE

Lookup "CN(C)c1ccc(-c2cc(-c3ccc(Nc4nc(Nc5ccc(Cl)cc5)nc(Nc5ccc(Cl)cc5)n4)cc3)no2)cc1" FALSE

Lookup "COC(=O)[C@]12CC[C@@H](C)[C@H](C)[C@@H]1C1=CC[C@@H]3[C@@]4(C)C(C=O)=C[C@@](C)(COC(=O)/C=C/c5ccccc5)[C@@H]4[C@H](O)C[C@@]3(C)[C@]1(C)CC2" TRUE

Lookup "C=CC(=O)Nc1cccc(Oc2nccc(Nc3nnc(C4CC4)s3)n2)c1" FALSE

----------
Test system: U251 CNS
Test: NCI-60 one-dose screen, 48 h
Conditions: 10 µM unless noted
About 83,000 compounds went through this panel and 20% of them were active in at least one assay; those are over-represented in the sample as a whole. Calls of active or inactive are those of the source. How the source made its calls: active means growth percent below 10; inactive means the rest.
Log the outcome using a class from true for active, false for inactive

1. O=C(Nc1cccc2c(O)c(N=Nc3ccc(S(=O)(=O)Nc4nccs4)cc3)cc(N=Nc3ccc(S(=O)(=O)Nc4nccs4)cc3)c12)C(Cl)Cl
false
2. CC(CCc1ccc(Cl)c(Cl)c1)NCc1ccc(C(C)(C)C)cc1 (centres undefined)
false
3. O=C(COc1ccc(/C=C2\Oc3ccccc3C2=O)cc1)c1ccc(Cl)cc1
false
4. COc1ccccc1N1C(=O)/C(=C/C2=Cc3ccccc3OC2)SC1=S
false
5. COc1cc(C2CC(c3cc(OC)c(OCCCOc4ccc(-n5c(/C=C/c6ccccc6)nc6ccccc6c5=O)cc4)c(OC)c3)=NO2)cc(OC)c1OC (centres undefined)
false
6. O=C(CCCCCCN1CC(=O)N2[C@@H](c3ccccc3Cl)c3[nH]c4ccccc4c3C[C@H]2C1=O)NO
false

Hi team, can someone confirm the assay call for "COc1ccccc1NC(=O)N/C(N)=N/c1nc2ccccc2s1" ? false

Lookup COc1ccc(C2=Nc3c(N)ncnc3NC(c3ccc4c(c3)OCO4)C2)cc1 (centres undefined) false

----------
Tested on: HCT-15 colon
Assay: NCI-60 one-dose screen, 48 h (100 = growth as untreated, 0 = no growth, -100 = all killed)
Details: 10 µM unless noted
Compounds without any hit were thinned out: in the full panel of roughly 83,000, 20% have a hit. Activity calls are given as the source filed them. Rule for the calls: active = growth percent below 10; inactive = the rest.
OBSERVED_PROPERTY: growth

Known results for compounds:
1) COc1ccc(C2C(c3nn[nH]n3)=C(N)Oc3c2ccc2ccccc32)cc1 (centres undefined)
35% (inactive)
2) CNC(=O)NCC1OC(n2cnc3c(NC(=O)Nc4ccccc4)ncnc32)C(O[Si](C)(C)C(C)(C)C)C1CC(=O)N(C)OC (centres undefined)
11.9% (inactive)
3) O=C1/C(=C/c2ccc(F)cc2)C=C(c2ccccc2)N1CCc1ccccc1
77.9% (inactive)

Give the reported growth for "CN(C)CCCn1c(=O)c2ccccc2c2ccccc21" (system: HCT-15 colon). 64.7% (inactive)

Lookup "S=C(c1ccc2c(c1)OCO2)N1CCN(c2ccccc2Cl)CC1" 96.2% (inactive)

Lookup COc1ccc(CNC(=O)C(O)C(Cc2ccccc2)NC(=O)c2[nH]c3ccccc3c(=O)c2C)cc1OC (centres undefined) 101% (inactive)

Lookup Cc1ccc(NS(=O)(=O)c2ccc3c(c2)C(=O)CC(c2ccc(C(=O)C(C)C)cc2)N3)cc1C (centres undefined) 57% (inactive)

Lookup "N#Cc1c(N)nn(C(=O)c2ccc(NC(=O)c3ccccn3)cc2)c1-c1ccc(Cl)cc1" 32.9% (inactive)

Lookup "COc1ccc(N2CCN(c3nc(-c4cc(OC)c(OC)c(OC)c4)nc4ccccc34)CC2)cc1" 61.8% (inactive)

----------
System: UACC-62 melanoma
Experiment: NCI-60 one-dose screen, 48 h
Settings: 10 µM unless noted
This is part of a sample that, as a whole, favours compounds with a hit. Of some 83,000 tested, about 20% had one in any assay. Calls of active or inactive are those of the source. Rule for the calls: active = growth percent below 10; inactive = the rest.
Log the outcome using a class from active, inactive

Past entries and their recorded results:
1. NS(=O)(=O)c1ccc(-n2nc(C(=O)N/N=C\c3ccc(F)cc3)cc2-c2ccc(Cl)cc2)cc1
inactive
2. O=C(COc1ccc(/C=C2\Oc3ccccc3C2=O)cc1)Nc1nc2ccccc2s1
inactive
3. COc1ccc(S(=O)(=O)NCCNc2nccc(-c3c(-c4cccc(F)c4)nc4sccn34)n2)cc1
inactive

Hi team, can someone confirm the assay call for "COc1ccc2c(c1)C(=O)/C(=C/c1ccc(OCC(=O)Nc3nccs3)cc1)O2" ? inactive

Lookup COc1cccc2c1C(=O)c1c(O)c3c(c(O)c1C2=O)CC(O)(/C(C)=N/NC(=O)CCCCC(=O)N/N=C(\C)C1(O)Cc2c(O)c4c(c(O)c2C(OC2CC(N)C(O)C(C)O2)C1)C(=O)c1c(OC)cccc1C4=O)CC3OC1CC(N)C(O)C(C)O1 (stereo not drawn) active

Lookup "O=C(NCCNc1cc(-c2cn(-c3ccccc3)nc2-c2cccc(O)c2)ccn1)Nc1ccccc1" inactive

Lookup "O=C(N/N=C/c1ccncc1)c1ccc(C(F)(F)F)nc1Nc1cccc(C(F)(F)F)c1" inactive

Lookup Cn1c2c(c3ccc(Cl)c(Cl)c31)C(C#N)C1(CCNCC1)NC2=O (stereo not drawn) active

----------
Tested on: HCT-116 colon
Experiment: NCI-60 one-dose screen, 48 h
Details: 10 µM unless noted
About 83,000 compounds went through this panel and 20% of them were active in at least one assay; those are over-represented in the sample as a whole. Activity calls are given as the source filed them. The calls were made as follows: active = growth percent below 10; inactive = the rest.
Log the outcome using a class from yes = active, no = inactive

1. O=S(=O)(O)c1ccc(N/N=C/c2ccccc2Cl)cc1
no

Hi team, can someone confirm the assay call for "Cc1ccc(Cl)cc1NC(=O)c1cc2ccccc2cc1O" ? yes

Lookup "C=C1C(=O)O[C@H]2[C@H]1CC/C(CNC(=O)/C=C/c1ccc(Cl)cc1Cl)=C\CC[C@@]1(C)O[C@@H]21" yes

Lookup "NCCCNc1nc2ccccc2c2c(=O)c3cccc(Cl)c3sc12" yes

Lookup O=c1cc(C2NNC(=S)N2)c2ccc3ccccc3c2o1 (stereo not given) no

Lookup "Cc1c(O)cc(-c2cnc(N/N=C\c3ccc(Cl)cc3)s2)c(O)c1C" no

Lookup "CCOC(=O)c1ccc(N2NC(=O)/C(=C/c3ccc([N+](=O)[O-])o3)C2=O)cc1" no

Lookup "COC(=O)c1c2c(c(C)[n+]([O-])c1C)C(=O)C(NCc1ccc(F)c(Cl)c1)=CC2=O" yes

Lookup CC(=O)C(C)Cc1cc2c(cc1C)C(C)(C)CCC2(C)C (stereo not given) no

Lookup "O=C(/C=C/c1ccc(Cl)nc1)c1ccc(Cl)cc1Cl" no

----------
Attribute: growth
System: MDA-MB-231 breast
Assay: NCI-60 one-dose screen, 48 h (100 = growth as untreated, 0 = no growth, -100 = all killed)
Conditions: 10 µM unless noted
This is part of a sample that, as a whole, favours compounds with a hit. Of some 83,000 tested, about 20% had one in any assay. Calls of active or inactive are those of the source. Rule for the calls: active = growth percent below 10; inactive = the rest.

Known results for compounds:
1. c1ccc(-c2nc([P+](c3ccccc3)(c3ccccc3)c3ccccc3)c(N3CCOCC3)o2)cc1
-14.8% (active)
2. C[C@]12CC[C@@H]3c4cc(OC(F)F)c(O)cc4CC[C@H]3[C@@H]1CC[C@@H]2OS(N)(=O)=O
50.9% (inactive)
3. CC1(C)CC(=O)C2=C(C1)N(c1ccc(OC(F)(F)F)cc1)C(N)=C(C#N)C2c1ccc(Cl)cc1 (stereo not given)
80.8% (inactive)
4. CCN1CCN(c2nc(C)cc(NCc3cc(Nc4ccnc5cc(Cl)ccc45)ccc3F)n2)CC1
-31.1% (active)
5. NS(=O)(=O)c1cnccc1Oc1cccc2cccnc12
102% (inactive)

Which growth reading was recorded for the compound "COc1cccc(-c2nn(-c3ccccc3)cc2-c2ccnc(NCCCNC(=O)c3ccc(F)cc3)c2)c1" ? 51.3% (inactive)

Lookup CCN1C(=O)N(CC)C2Nn3c(s/c(=C\c4ccc(Cl)cc4Cl)c3=O)=NC21 (stereo not given) 27.3% (inactive)

Lookup "O=[N+]([O-])c1ccc(Sc2cccc[n+]2[O-])c2nonc12" 90.4% (inactive)

Lookup "O=C(CCCCCCSc1nc(-c2ccccc2)cc(-c2ccc(Cl)cc2)n1)NO" 25.3% (inactive)

Lookup "c1c[nH]c(CNC2CCCCC2)c1" 129% (inactive)

Lookup CC1=C([Se]CC(OC(=O)CC[Se]c2ccccc2)C(=O)NCCCCCC(=O)OCc2ccccc2)C(=O)c2ccccc2C1=O (stereo not given) 32.3% (inactive)

Sourced from PubChem BioAssay (NCI)
